# binding signal per entry
subject.of.test: T1, RBFOX1 RRM (Homo sapiens, UniProt Q9NWB1 109-208)
T1 sequence: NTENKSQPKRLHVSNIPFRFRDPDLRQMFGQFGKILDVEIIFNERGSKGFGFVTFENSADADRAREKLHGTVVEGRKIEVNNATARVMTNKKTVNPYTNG
assay.info: EMSA; HiTS-Eq, 1 nM pool, 10 min; buffer printed only for the single-RNA assays: 10 mM Tris pH 7.5, 150 mM NaCl, 3.4 mM EDTA, 0.001% NP-40, 30 C
assay.context: tags: His6 N-terminal (pET28a); label: 5' 32P
In all, about 16,000 sequences were measured (“ka relative to ugcaugu”: median about 0.0091, highest 2% from about 0.032 on). The full list was thinned out, with the highest values kept by preference.
result.type: binding signal

CGGUUAU (DNA:RNA) RNA: GGGAGACCGGAAUUCAGAUUGUCCCGGUUAUUUAAAUCCCGUCGUAGCCACCA DNA 1: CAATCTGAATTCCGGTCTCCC DNA 2: TGGTGGCTACGACGGGATT | 0.0102 KA relative to UGCAUGU
CGCAUCG (DNA:RNA) RNA: GGGAGACCGGAAUUCAGAUUGUCCCGCAUCGUUAAAUCCCGUCGUAGCCACCA DNA 1: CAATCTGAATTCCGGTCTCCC DNA 2: TGGTGGCTACGACGGGATT | 0.017 KA relative to UGCAUGU
CAACUAC (DNA:RNA) RNA: GGGAGACCGGAAUUCAGAUUGUCCCAACUACUUAAAUCCCGUCGUAGCCACCA DNA 1: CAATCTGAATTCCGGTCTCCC DNA 2: TGGTGGCTACGACGGGATT | 0.000393 KA relative to UGCAUGU
GUUAAGA (DNA:RNA) RNA: GGGAGACCGGAAUUCAGAUUGUCCGUUAAGAUUAAAUCCCGUCGUAGCCACCA DNA 1: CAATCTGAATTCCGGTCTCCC DNA 2: TGGTGGCTACGACGGGATT | 0.012 KA relative to UGCAUGU
GCAUCCG (DNA:RNA) RNA: GGGAGACCGGAAUUCAGAUUGUCCGCAUCCGUUAAAUCCCGUCGUAGCCACCA DNA 1: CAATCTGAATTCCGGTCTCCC DNA 2: TGGTGGCTACGACGGGATT | 0.0325 KA relative to UGCAUGU
CUAGUGU (DNA:RNA) RNA: GGGAGACCGGAAUUCAGAUUGUCCCUAGUGUUUAAAUCCCGUCGUAGCCACCA DNA 1: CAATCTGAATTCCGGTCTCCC DNA 2: TGGTGGCTACGACGGGATT | 0.0159 KA relative to UGCAUGU
UCUCAAU (DNA:RNA) RNA: GGGAGACCGGAAUUCAGAUUGUCCUCUCAAUUUAAAUCCCGUCGUAGCCACCA DNA 1: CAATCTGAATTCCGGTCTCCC DNA 2: TGGTGGCTACGACGGGATT | 0.0038 KA relative to UGCAUGU
AGAGAAG (DNA:RNA) RNA: GGGAGACCGGAAUUCAGAUUGUCCAGAGAAGUUAAAUCCCGUCGUAGCCACCA DNA 1: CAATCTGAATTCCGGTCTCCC DNA 2: TGGTGGCTACGACGGGATT | 0.00984 KA relative to UGCAUGU
GUAGAGU (DNA:RNA) RNA: GGGAGACCGGAAUUCAGAUUGUCCGUAGAGUUUAAAUCCCGUCGUAGCCACCA DNA 1: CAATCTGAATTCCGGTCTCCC DNA 2: TGGTGGCTACGACGGGATT | 0.0112 KA relative to UGCAUGU
